Each entry below carries its recorded response (Arbitrary Units).
B1: wild-type US28 receptor with a C-terminal natural peptide tag (US28-NP) [human cytomegalovirus (HCMV)] / LgBiT-Gα12 [not stated] (parent)
chain 1: MTPTTTTAELTTEFDYDEDATPCVFTDVLNQSKPVTLFLYGVVFLFGSIGNFLVIFTITWRRRIQCSGDVYFINLAAADLLFVCTLPLWMQYLLDHNSLASVPCTLLTACFYVAMFASLCFITEIALDRYYAIVYMRYRPVKQACLFSIFWWIFAVIIAIPHFMVVTKKDNQCMTDYDYLEVSYPIILNVELMLGAFVIPLSVISYCYYRISRIVAVSQSRHKGRIVRVLIAVVLVFIIFWLPYHLTLFVDTLKLLKWISSSCEFERSLKRALILTESLAFCHCCLNPLLYVFVGTKFRQELHCLLAEFRQRLFSRDVSWYHSMSFSRRSSPSRRETSSDTLSDEVCRVSQIIP
chain 2: MSGVVRTLSRCLLPAEAGGARERRAGSGARDAEREARRRSRDIDALLARERRAVRRLVKILLLGAGESGKSTFLKQMRIIHGREFDQKALLEFRDTIFDNILKGSRVLVDARDKLGIPWQYSENEKHGMFLMAFENKAGLPVEPATFQLYVPALSALWRDSGIREAFSRRSEFQLGESVKYFLDNLDRIGQLNYFPSKQDILLARKATKGIVEHDFVIKKIPFKMVDVGGQRSQRQKWFQCFDGITSILFMVSSSEYDQVLMEDRRTNRLVESMNIFETIVNNKLFFNVSIILFLNKMDLLVEKVKTVSIKKHFPDFRGDPHRLEDVQRYLVQCFDRKRRNRSKPLFHHFTTAIDTENVRFVFHAVKDTILQENLKDIMLQ

# Variants of: B1
# protocol.notes: NanoBiT nLuc complementation assay in live HEK-293 cells (Nano-Glo live cell assay), area under the curve
# run.parameters: with LgBiT-Gα12, 18 hours post-transfection media exchanged with serum-free DMEM, 6 hours later luciferase activity monitored for 60 minutes, parent: 2.2e+07, read off a plot
# output: bare number, no unit

chain 1 D128A R129A Y130A :: 2.8e+06

Now consider the entry below.
Ask: Consider the variant chain 1 S218A and give its measured response (Arbitrary Units).
Reply: 6.8e+06

Numbers sourced from paper PMC11784217.
